Provide the reported Human hepatocytes - Editing %, 2500, rep 1 of each item.
System: human TTR gene
TEST_DESCRIPTION: Editing activity in human primary hepatocytes (gRNA + ABE8.8 mRNA co-transfection, NGS of PCR amplicons)
Assay type: cell-based
EXPERIMENTAL_CONTEXT: 2500 ng/RNA/mL, rep 1

Please review the entries below; each comes with its answer.
| MOLECULE | TEST_RESULT |
| --- | --- |
| GA460: Human/Cyno TTR guide RNA, spacer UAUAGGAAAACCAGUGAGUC, gRNA SEQ ID NO: 14 (nucleic acid, chemistry not given here) guide: TATAGGAAAACCAGTGAGTCGTTTTAGAGCTAGAAATAGCAAGTTAAAATAAGGCTAGTCCGTTATCAACTTGAAAAAGTGGCACCGAGTCGGTGCTTTT | 47.61% |
| GA457: Human TTR guide RNA, spacer GCCAUCCUGCCAAGAAUGAG, gRNA SEQ ID NO: 11 (nucleic acid, chemistry not given here) guide: GCCATCCTGCCAAGAATGAGGTTTTAGAGCTAGAAATAGCAAGTTAAAATAAGGCTAGTCCGTTATCAACTTGAAAAAGTGGCACCGAGTCGGTGCTTTT | 33.96% |
| GA459: Human TTR guide RNA, spacer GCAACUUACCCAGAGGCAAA, gRNA SEQ ID NO: 13 (nucleic acid, chemistry not given here) guide: GCAACTTACCCAGAGGCAAAGTTTTAGAGCTAGAAATAGCAAGTTAAAATAAGGCTAGTCCGTTATCAACTTGAAAAAGTGGCACCGAGTCGGTGCTTTT | 8.5% |

Query molecule follows.
Consider GA461: Human/Cyno TTR guide RNA, spacer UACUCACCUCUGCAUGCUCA, gRNA SEQ ID NO: 15 (nucleic acid, chemistry not given here) guide: TACTCACCTCTGCATGCTCAGTTTTAGAGCTAGAAATAGCAAGTTAAAATAAGGCTAGTCCGTTATCAACTTGAAAAAGTGGCACCGAGTCGGTGCTTTT . Its measured Human hepatocytes - Editing %, 2500, rep 1 is 40.42%
